- System: Fibroblast
- Experiment Notes: Incucyte cell viability with human fibroblast; note: unitless GR value; below 1 slowed growth and below 0 cell loss
- Format: toxicity, cell-based
- Reported Conditions: 24 h, 10 µM, compound concentration 10 uM, replicate number 1
Would you please tag the item satisfied when its Growth Rate is 0.3 or above, and not satisfied when it is below?

>>> qualitative_label("CCOCC1(COCC)CCC(c2n[nH]cc2CN(C)CCNC)CC1.Cl")
"satisfied"
>>> qualitative_label("CC1(C)c2cccc(C(=O)NO)c2CN1c1cnc(C(F)(F)F)cn1")
"satisfied"
>>> qualitative_label("CC(C)N(C[C@H]1O[C@@H](n2cnc3c(N)ncnc32)[C@H](O)[C@@H]1O)[C@H]1C[C@@H](CCc2nc3cc(C(C)(C)C)ccc3[nH]2)C1")
"satisfied"
>>> qualitative_label("Nc1ccccc1NC(=O)c1ccc(CNC(=O)OCc2cccnc2)cc1")
"not satisfied"
>>> qualitative_label("C[C@H](CN[C@@H](C(=O)Nc1ccc(-c2cnn(C)c2)cn1)c1ccccc1)c1ccc(C#N)cc1")
"satisfied"
>>> qualitative_label("CC(=O)N[C@@H](CC(=O)O)C(=O)N[C@@H](CCC(=O)O)C(=O)N[C@H](C(=O)N[C@H](C=O)CC(=O)O)C(C)C.O=C(O)C(F)(F)F")
"satisfied"
>>> qualitative_label("CCCC1O[C@@H]2C[C@H]3[C@@H]4CCC5=CC(=O)C=C[C@]5(C)[C@H]4[C@@H](O)C[C@]3(C)[C@]2(C(=O)CO)O1 (stereo partly drawn) [BUDESONIDE]")
"satisfied"
>>> qualitative_label("Nc1c[nH]c(=O)c2cc(-c3ccccc3)sc12")
"not satisfied"

---

- Tested on: U2OS
- Experiment Notes: Incucyte cell viability with U2OS; note: unitless GR value; below 1 slowed growth and below 0 cell loss
- Assay type: toxicity, cell-based
- Reported Conditions: human, 24 h, 10 µM, compound concentration 10 uM, replicate number 1
Measurement Label: Growth Rate

>>> recorded_value("Cc1nc(Nc2ncc(C(=O)Nc3c(C)cccc3Cl)s2)cc(N2CCN(CCO)CC2)n1 [DASATINIB ANHYDROUS]")
-0.47
>>> recorded_value("O=C(NO)c1ccc(CN(c2cnccn2)c2cnccn2)cc1")
-0.27
>>> recorded_value("COC[C@H](NC(=O)c1ccn(S(C)(=O)=O)c1)C(=O)Nc1nc(-c2cccc(-c3ccn(C)n3)c2)cs1")
0.77
>>> recorded_value("CCCOc1cccc(Oc2cc3c(cc2NS(=O)(=O)c2cccc(C(=O)NCCOCCOCCOCC(=O)N[C@H](C(=O)N4C[C@H](O)C[C@H]4C(=O)NCc4ccc(-c5scnc5C)cc4)C(C)(C)C)c2)n(C)c(=O)n3C)c1")
0.91
>>> recorded_value("O=C(O)/C(S)=C/c1c[nH]c2ccc(F)cc12")
0.49
>>> recorded_value("CC(=O)N[C@@H](CC(=O)O)C(=O)N[C@@H](CCC(=O)O)C(=O)N[C@H](C(=O)N[C@@H](CC(=O)O)C(=O)CCl)C(C)C.O=C(O)C(F)(F)F")
1
>>> recorded_value("O=C(NO)c1cnc(NC2(c3ccccc3)CC2)nc1")
-0.38
>>> recorded_value("NC(=O)c1ccc(Oc2ccc(C(N)=O)cc2)cc1")
1
>>> recorded_value("CC/C(=C(/c1ccc(/C=C/C(=O)O)cc1)c1ccc2[nH]ncc2c1)c1ccc(F)cc1Cl")
1
>>> recorded_value("Nc1ccccc1NC(=O)c1ccc(CNc2nccc(-c3cccnc3)n2)cc1")
-0.13
>>> recorded_value("C[C@]12O[C@H](C[C@]1(O)CO)n1c3ccccc3c3c4c(c5c6ccccc6n2c5c31)CNC4=O")
0.59
>>> recorded_value("CCCC1O[C@@H]2C[C@H]3[C@@H]4CCC5=CC(=O)C=C[C@]5(C)[C@H]4[C@@H](O)C[C@]3(C)[C@]2(C(=O)CO)O1 (some centres not stated) [BUDESONIDE]")
1
>>> recorded_value("CC/C(=C(/CC)c1ccc(O)cc1)c1ccc(O)cc1")
1
>>> recorded_value("Cc1nc(-c2cnc(NC(C)C)n(C)c2=O)ccc1Oc1ccnc(-c2cnn(C)c2)c1")
0.42
>>> recorded_value("CCC[C@H]1CNCc2c1[nH]c(=O)c(C#N)c2N1CCC2(CC1)CC2.Cl")
0.97
>>> recorded_value("CNC(=O)O[C@H]1COc2ccc(N3CCN(C4COC4)CC3)cc2[C@@H]1NC(=O)c1ccc(F)cc1")
1
>>> recorded_value("CSc1cccc(Nc2ncc3cc(-c4c(Cl)cccc4Cl)c(=O)n(C)c3n2)c1")
-0.64
